- System: CASKI
- Protocol details: Primary qHTS to identify gynecologic anti-cancer compounds using libraries of approved drugs and bioactive compounds (AID 1345084); also: % is scaled to controls: 0 for no effect and ±100 for the full control effect; nearly all actives have a fitted effect of over 55% in size
- Stated conditions: Gynecologic cancer cell panel viability, ATPlite luminescence, 48 h; series mostly up to 57.5 µM
Inconclusive results are not listed. Active and inactive are the calls of the source. Calls follow the shape of the dose curve; as a rule, active = well fitted cell-killing curve with a large enough effect; inconclusive = small, poorly fitted or top-dose-only effect, or effect the other way; inactive = flat fitted curve, though single readings scatter.
Endpoint: activity change, negative = cytotoxicity

| Molecule | Observed measurement |
| --- | --- |
| COC(=O)C(CC1(O)c2ccccc2N2C(=O)C(C)(C)N(O)C21)n1cnc2ccccc2c1=O (stereo not drawn) | inactive |
| CC(C)(O)c1ccc2c(c1)C(=O)C[C@H]1[C@](C)(C(=O)O)CCC[C@]21C | inactive |
| CCC(C)/C=C(C)/C=C/C1=CC2=C(Cl)C(=O)C(C)(OC(C)=O)C(=O)C2=CN1C(CC(=O)O)C(=O)O (stereo not drawn) | inactive |
| O=C(Cn1c2ccccc2c2nc3n(c(=O)c21)CCS3)N1CCCC1 | inactive |
| COc1cc(O)cc(C)c1C(=O)O[C@H]1[C@@H](O)[C@@H](n2ccc(=O)[nH]c2=O)O[C@@H]1CO | inactive |
| O=C(OCC1OC(Oc2ccc(O)cc2COC(=O)C2(O)C(O)CCC(=O)C2OC(=O)C2C=CCC2)C(OC(=O)C2C=CCC2)C(O)C1O)C1C=CCC1 (stereo not drawn) | inactive |

Please look up its activity change, negative = cytotoxicity: `NC1(c2ccc(NC(=O)c3ccnc(-c4cc(C(=O)O)ccn4)c3)cc2)CC1`
inactive

Try C/C=C(\C)C1C(C)=CC2CCC(OS(=O)(=O)O)C(C)C2C1/C=C/C=C/C(=O)O (stereo not drawn) next.
inactive

====

Reported activity is given for each of the following compounds.
- Target desc: Phenylethanolamine N-methyltransferase (Homo sapiens) (UniProt P11086)
- Sequence (P11086 whole entry, looked up): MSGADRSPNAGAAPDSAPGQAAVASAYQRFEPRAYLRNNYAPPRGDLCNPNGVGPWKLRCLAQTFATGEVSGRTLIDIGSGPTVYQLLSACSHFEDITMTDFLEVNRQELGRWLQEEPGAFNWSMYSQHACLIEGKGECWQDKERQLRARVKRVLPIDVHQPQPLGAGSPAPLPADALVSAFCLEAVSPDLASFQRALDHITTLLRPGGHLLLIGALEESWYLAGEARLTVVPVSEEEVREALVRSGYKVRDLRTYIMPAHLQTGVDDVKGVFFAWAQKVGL
- Protocol details: Confirmatory Screen for Target Class Profiling of Small Molecule Inhibitors of Methyltransferases (AID 1745852)
- Stated conditions: MTase-Glo luminescence, SAH detection, recombinant enzyme; measured here: PNMT max response; stronger effect = lower value
Reply with just the number (in %).

# example entries with known answers
| Compound | Target desc | Endpoint | Unit | Observed measurement |
| --- | --- | --- | --- | --- |
| COc1ccccc1CN[C@H]1CCCN[C@H]1c1ccccc1 | Phenylethanolamine N-methyltransferase (Homo sapiens) (UniProt P11086) | activity | % | -0.84 |
| CC(C)N(CCCNC(=O)Nc1ccc(C(C)(C)C)cc1)C[C@H]1O[C@@H](n2ccc3c(N)ncnc32)[C@H](O)[C@@H]1O | Phenylethanolamine N-methyltransferase (Homo sapiens) (UniProt P11086) | activity | % | -18.6 |
| CC1CCCCCCCc2cc(O)cc(O)c2C(=O)O1 (stereo not given) | Phenylethanolamine N-methyltransferase (Homo sapiens) (UniProt P11086) | activity | % | -64.4 |
| CSC(=O)OCC1=C[C@@H]2OC(=O)C3=CO[C@@H](O[C@@H]4O[C@H](CO)[C@@H](O)[C@H](O)[C@H]4O)[C@H]1[C@@H]32 | Phenylethanolamine N-methyltransferase (Homo sapiens) (UniProt P11086) | activity | % | -7.61 |

Please look up its activity: `O=C(CCc1ccccc1)c1c(O)c([C@@H]2O[C@H](CO)[C@@H](O)[C@H](O)[C@H]2O)c(O)c([C@@H]2O[C@H](CO)[C@@H](O)[C@H](O)[C@H]2O)c1O`
4.21
